Source of measurements: the supplement of paper PMC11451515

Test system: P12-Ichikawa
Assay Comment: cell viability relative to DMSO control; higher = less cytotoxic
Study Conditions: HPLM + 10% dialyzed FBS; 48 h; 0.00234 µM
Measurement Kind: cell viability (%)
Kindly provide the numeric value in % only, without the unit symbol.

Structure Smiles String	cell viability [%]
CCN(CC)CCCCNc1ncc2c(n1)N(C)C(=O)N(c1c(Cl)c(OC)cc(OC)c1Cl)C2	121
CC[C@]12\C=C/CN3CC[C@]4([C@@H](N(C)C5=CC(=C(C=C45)[C@]6(C[C@H]7C[C@H](CN(C7)CC8=C6[NH]C9=C8C=CC=C9)C(C)(F)F)C(=O)OC)OC)[C@](O)([C@@H]1OC(C)=O)C(=O)OC)[C@H]23	93.3
Cn1cc(/C=C2\C(=O)Nc3cccnc32)c2ccccc21	124

Moving on to another compound below.
(Q) Tell me the measured cell viability of `COc1cc2c(Nc3ccc(Br)cc3F)ncnc2cc1OCC1CCN(C)CC1` , please.
(A) 93.5

###

System: SEM cells
Assay Comment: cell viability relative to DMSO control; higher = less cytotoxic
Study Conditions: RPMI 5 mM glucose + 10% FBS; 48 h; 0.000781 µM
Recorded cell viability values for a group of compounds are listed next.
Use % as the unit, but write only the number.

Look over these answered cases.
Structure Smiles String	Test System	cell viability (%)
COC[C@H](c1ccc(C(F)(F)F)cc1)N1CCN(C2(C)CCN(C(=O)c3c(C)ncnc3C)CC2)C[C@H]1C.O=C(O)/C=C\C(=O)O	SEM cells	66
Cc1cnc(C(=O)O)c[n+]1[O-]	SEM cells	77.1

Turning to the following compound.
(Q) Fill blank: measured cell viability of the compound `NCCCCNCCCN` is ____.
(A) 107

###

System: NOMO1
Assay Comment: cell viability relative to DMSO control; higher = less cytotoxic
Study Conditions: RPMI 5 mM glucose + 10% FBS; 48 h; 46.1 µM
Measurement Kind: cell viability
Write down the value, and be sure its unit follows.

(Q) I am curious: what cell viability value has been reported for `CN1C(=O)C[C@H](C(=O)N[C@@H](Cc2cnc[nH]2)C(=O)N2CCC[C@H]2C(N)=O)NC1=O` ?
(A) 114%

(Q) Would you mind telling me what cell viability value was observed for `Nc1nnc(-c2cccc(Cl)c2Cl)c(N)n1` ?
(A) 102%

(Q) Requested field: cell viability. Item: `COCCOc1nc(-c2ccc(Cl)c(Cl)c2)n(-c2ccc(NC(=O)CCl)cc2)n1`
(A) 86.7%

(Q) Data request, read-out cell viability, for CC/1=C(/C(CC(=O)N1)C2=CC=C(C=C2)C(F)(F)F)C(=O)NC3=C(F)C=C4[NH]N=CC4=C3 (stereo not given)
(A) 23.9%

###

System: NOMO1
Assay Comment: cell viability relative to DMSO control; higher = less cytotoxic
Study Conditions: RPMI 5 mM glucose + 10% dialyzed FBS; 48 h; 0.19 µM
true (1) if cell viability is below 90%. false (0) if not; exact matches included in false (0).

Before answering, review these 4 worked examples.
Structure Smiles String	Test System	Label Class
CC[C@@]1(O)C(=O)OC\C2=C1\C=C\3N(CC4=C3N=C5C=CC=CC5=C4)C2=O	NOMO1	true (1)
COc1ccc([C@@H]2CC(=O)c3c(O)cc(O[C@@H]4O[C@H](CO[C@@H]5O[C@@H](C)[C@H](O)[C@@H](O)[C@H]5O)[C@@H](O)[C@H](O)[C@H]4O)cc3O2)cc1O	NOMO1	false (0)
COc1cccc([C@@H](C)NCCCc2ccccc2Cl)c1	NOMO1	false (0)
N[S+](=O)([O-])c1cccc2c1C(=O)c1cccc(O)c1C2=O	NOMO1	false (0)

Now turn to the next molecule.
(Q) cell viability under 90%? Item: `CC(C)c1ccc(Cn2ccc3c4c(N)nc(NC5CC5)nc4ccc32)cc1`
(A) false (0)
